- experimentalDetails: Plasma pharmacokinetics after i.v. injection (LC-MS/MS)
- Format: in vivo
- assayConditions: Swiss CD1, mouse, iv, mice, 7.5 mg/kg i.v., 6 h, read-out: Givinostat plasma level
measuredAttribute: concentration at 6 h (ng/mL)
Write down the numeric answer in ng/mL and omit the unit.

Please give the measured concentration at 6 h for this molecule: "CCN(CC)Cc1ccc2cc(COC(=O)Nc3ccc(C(=O)NO)cc3)ccc2c1" 4

====

- experimentalDetails: Brain penetration after i.v. injection (LC-MS/MS)
- Assay type: in vivo, Swiss CD1 mice
- assayConditions: Swiss CD1, mouse, brain and plasma, iv; mice, 7.5 mg/kg single i.v.; read-out: AUCbrain/AUCplasma ratio
measuredAttribute: Kp
The answer should be a number; do not append a unit.

Quick check: Kp of "CCN(CC)Cc1ccc2cc(COC(=O)Nc3ccc(C(=O)NO)cc3)ccc2c1" ? 0.372
